Measured melting point of individual entries
QUANTITY KIND: melting point

* COCOc1cccc2c(=O)[nH]c(CCCN(C)C)cc12 | 110 to 112 °C
* O=c1[nH]c(N2CCN(Cc3ccccc3)C(CO)C2)cc2ccccc12 (stereo not drawn) | 176 to 177 °C
* CN1CCC(C2Cc3ccccc3C(=O)N2)CC1 (stereo not drawn) | 139 to 141 °C
* CN(C)C1CCN(c2cc3ccccc3c(=O)[nH]2)CC1 | 204 to 205 °C (dec.)
* O=c1[nH]c(N2CCN(CCCCN3CCCCC3)CC2)cc2c(Br)cccc12 | 165 to 166 °C (dec.)
* CC1CN(c2cc3ccccc3c(=O)[nH]2)CCN1 (stereo not drawn) | 164 to 167 °C
* Cc1ccc2c(=O)[nH]c(N3CCN(CCO)CC3)cc2c1 | 236 to 237 °C (dec.)
* CN(C)C1CCN(c2cc3c(Br)cccc3c(=O)[nH]2)CC1 | 214 to 215 °C (dec.)
* CN1CCC(c2cc3ncccc3c(=O)[nH]2)CC1 | > 240 °C (dec.)
* O=c1[nH]c(N2CCC(N3CCCCC3)CC2)cc2ccccc12 | > 200 °C (dec.)
* O=c1[nH]c(N2CCN(CCO)CC2)cc2c(F)cccc12 | 207 to 208 °C (dec.)
* CN1CCCN(c2cc3ccccc3c(=O)[nH]2)CC1 | 171 to 172 °C (dec.)
* Cc1cccc2c(=O)[nH]c(C3CN4CCC3CC4)nc12 (stereo not drawn) | 230 to 231 °C (dec.)
* CN1CCN(c2cc3c(Br)cccc3c(=O)[nH]2)CC1CO (stereo not drawn) | 200 to 202 °C
* CN1CCN(c2cc3c(F)cccc3c(=O)[nH]2)CC1 | 238 to 239 °C (dec.)
* CN1CCC(c2[nH]c(=O)c3ccccc3c2-c2ccc(Cl)cc2)CC1 | 254 to 256 °C
* CN1CCC(c2[nH]c(=O)c3ccccc3c2-c2ccc(F)cc2)CC1 | 269 to 271 °C
* CN1CCC(c2[nH]c(=O)c3ccccc3c2-c2ccccc2F)CC1 | 247 to 249 °C
* CN1CCC(c2cc3ccc(Cl)cc3c(=O)[nH]2)CC1 | 253 to 255 °C
* CN(C)CCCCc1cc2c(O)cccc2c(=O)[nH]1.Cl | 231 to 233 °C
* O=c1[nH]c(N2CCNC(CO)C2)cc2ccccc12 (stereo not drawn) | > 120 °C (dec.)
